The reported numbers originate from patent EP4786492A1.

Target: T1, monkey DLL3 on CHO K1-cyno DLL3 cells (cynomolgus monkey)
T1 construct: also called monkey DLL3 recombinant cell line
T1 chain: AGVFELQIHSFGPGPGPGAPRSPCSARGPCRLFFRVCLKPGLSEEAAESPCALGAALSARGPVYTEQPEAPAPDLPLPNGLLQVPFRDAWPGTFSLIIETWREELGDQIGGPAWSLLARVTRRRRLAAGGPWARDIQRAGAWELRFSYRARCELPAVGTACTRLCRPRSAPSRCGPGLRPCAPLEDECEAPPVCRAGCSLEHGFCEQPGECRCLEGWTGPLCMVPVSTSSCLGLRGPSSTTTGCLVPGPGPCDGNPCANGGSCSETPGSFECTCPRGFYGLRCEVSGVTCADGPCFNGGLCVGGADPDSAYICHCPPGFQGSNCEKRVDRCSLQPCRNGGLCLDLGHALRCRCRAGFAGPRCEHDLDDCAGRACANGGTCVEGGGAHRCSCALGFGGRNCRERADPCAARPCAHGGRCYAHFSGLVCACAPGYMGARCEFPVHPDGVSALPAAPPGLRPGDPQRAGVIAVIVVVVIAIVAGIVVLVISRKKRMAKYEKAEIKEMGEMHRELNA
Test: FACS, CHO K1-cyno DLL3 cells

binder | binding result
Hab015VL5VH1a-hFc (Fc fusion, humanized mab015, VL-linker-VH-human IgG1 Fc; also called Hab015L5H1a; not shown: linker; human IgG1 Fc fragment) scFv (part 1 of 2): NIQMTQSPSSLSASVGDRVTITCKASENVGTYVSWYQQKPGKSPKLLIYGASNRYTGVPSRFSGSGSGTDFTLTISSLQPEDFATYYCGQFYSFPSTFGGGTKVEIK scFv (part 2 of 2): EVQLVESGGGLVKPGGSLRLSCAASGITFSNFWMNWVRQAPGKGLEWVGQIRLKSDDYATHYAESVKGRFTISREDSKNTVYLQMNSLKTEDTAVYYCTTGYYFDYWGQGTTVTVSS | binds
Hab009VL3aVH1-hFc (Fc fusion, humanized mab009, VL-linker-VH-human IgG1 Fc; not shown: linker; human IgG1 Fc fragment) scFv (part 1 of 2): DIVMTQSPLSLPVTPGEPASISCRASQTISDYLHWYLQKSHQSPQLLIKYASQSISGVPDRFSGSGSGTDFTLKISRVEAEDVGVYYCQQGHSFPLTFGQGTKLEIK scFv (part 2 of 2): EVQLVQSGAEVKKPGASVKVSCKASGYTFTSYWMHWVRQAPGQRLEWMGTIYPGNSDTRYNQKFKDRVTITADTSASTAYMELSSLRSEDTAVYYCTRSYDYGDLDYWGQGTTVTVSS | binds
mab015 scFv-hFc (Fc fusion, human-murine chimeric scFv-hFc, VL-linker-VH-human IgG1 Fc; not shown: linker; Fc fragment of human IgG1) scFv (part 1 of 2): NIVMTQSPKSMSMSVGERVTLSCKASENVGTYVSWFQQKPEQSPKLLIYGASNRYTGVPDRFTGSGSATDFTLTISSVQAEDLADYHCGQFYSFPCTFGGGTKLEIK scFv (part 2 of 2): EVKLEESGGGLVQPGGSMKLSCVASGITFSNFWMNWVRQSPEKGLEWVAQIRLKSDDYATHYAESVKGRFTISRDDSKGSVYLQMNNLRTEDTGIHYCTTGYYFDYWGQGTTLTVSS | binds
